Biological target: GABARAPL2 (Homo sapiens)
Sequence (P60520 whole entry): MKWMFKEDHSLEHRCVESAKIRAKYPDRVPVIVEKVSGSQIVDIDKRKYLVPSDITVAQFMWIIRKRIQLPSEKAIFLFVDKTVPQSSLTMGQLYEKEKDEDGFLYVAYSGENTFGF
Settings: residue M1; GABARAPL2:ligand molar ratio 1:2
endpoint: CSP (ppm)

smiles_code | recorded_value
O=C1Nc2ccc(Br)cc2C1=Cc1cc(O)c(O)c(Br)c1 | 0.00659
Cc1ccc(C(=O)N(CCCN)[C@@H](c2nc3cc(Cl)ccc3c(=O)n2Cc2ccccc2)C(C)C)cc1 | 0.006
O=c1cc(-c2ccccc2)c2c(O)cc(O)cc2o1 | 0.014
O=C1Nc2ccc(I)cc2C1=Cc1cc(Br)c(O)c(Br)c1 | 0.010
